- TARGET_UNDER_TEST: CDKs and other kinases (Homo sapiens, UniProt P06493)
- Construct: other: CDK1B; residual activity (%) at 10 μM CDK1B; compound at 10 μM
- Sequence (P06493 whole entry): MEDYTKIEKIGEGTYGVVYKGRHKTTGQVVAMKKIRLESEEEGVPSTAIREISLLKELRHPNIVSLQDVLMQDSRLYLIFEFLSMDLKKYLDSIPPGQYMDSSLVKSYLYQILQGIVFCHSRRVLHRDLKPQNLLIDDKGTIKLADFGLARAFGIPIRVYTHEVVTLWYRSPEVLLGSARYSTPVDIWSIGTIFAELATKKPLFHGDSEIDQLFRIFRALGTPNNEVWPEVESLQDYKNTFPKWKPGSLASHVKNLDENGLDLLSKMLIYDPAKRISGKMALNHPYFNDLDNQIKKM
- TEST_NAME: Radiometric kinase assay (Eurofins Pharma Discovery or Reaction Biology Corporation Kinase Profiler)
- Assay type: biochemical
- STATED_CONDITIONS: CDK1B; read-out: CDK inhibition, Ki (μM) CDK1B
Could you mark each record T if its Ki falls strictly under 2 µM, and F if it equals or exceeds it?

In [3]: df
Out[3]:
                                   molecule  group
0  Cc1cnc(N2CCC3(CCNC3=O)CC2)nc1-c1cnc2ccc(-c3ccccc3)cn12      F
1  COC(=O)CN1CCC(Nc2ncc(F)c(-c3cnc4ccccn34)n2)CC1      T
2  Cc1cnc(N[C@H]2CC[C@H](N)CC2)nc1-c1cnc2ccc(Nc3cncnc3)cn12      T
3  Cc1cnc(N[C@H]2CC[C@H](N)CC2)nc1-c1cnc2ccc(Nc3ccc(OC(F)F)nc3)cn12      F
4  N[C@H]1CC[C@H](Nc2ncc(Cl)c(-c3cnc4ccc(-c5cncnc5)cn34)n2)CC1      F
5  N[C@H]1CC[C@H](Nc2ncc(Cl)c(-c3cnc4ccc(NCc5ccc(F)cc5)cn34)n2)CC1      F
6  Cc1cnc(N[C@H]2CC[C@H](N)CC2)nc1-c1cnc2ccc(-c3c(C)noc3C)cn12      F

Exercise: I wonder whether `N[C@H]1CC[C@H](Nc2ncc(Cl)c(-c3cnc4cc(Nc5cncnc5)ccn34)n2)CC1` has Ki below 2 µM. Can you tell?
Key: T

----------
- TARGET_UNDER_TEST: CDK9/T1 (Homo sapiens, UniProt P50750)
- Sequence (P50750 whole entry): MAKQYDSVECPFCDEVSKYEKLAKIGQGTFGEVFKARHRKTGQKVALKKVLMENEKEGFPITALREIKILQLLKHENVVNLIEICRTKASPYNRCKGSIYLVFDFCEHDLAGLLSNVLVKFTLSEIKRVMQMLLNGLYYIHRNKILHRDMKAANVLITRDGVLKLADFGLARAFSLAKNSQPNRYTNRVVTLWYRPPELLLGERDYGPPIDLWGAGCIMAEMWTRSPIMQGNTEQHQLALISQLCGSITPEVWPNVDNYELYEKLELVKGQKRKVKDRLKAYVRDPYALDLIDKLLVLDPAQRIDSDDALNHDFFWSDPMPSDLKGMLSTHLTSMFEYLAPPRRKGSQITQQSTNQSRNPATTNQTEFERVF
- Sequence (O60563 whole entry partner): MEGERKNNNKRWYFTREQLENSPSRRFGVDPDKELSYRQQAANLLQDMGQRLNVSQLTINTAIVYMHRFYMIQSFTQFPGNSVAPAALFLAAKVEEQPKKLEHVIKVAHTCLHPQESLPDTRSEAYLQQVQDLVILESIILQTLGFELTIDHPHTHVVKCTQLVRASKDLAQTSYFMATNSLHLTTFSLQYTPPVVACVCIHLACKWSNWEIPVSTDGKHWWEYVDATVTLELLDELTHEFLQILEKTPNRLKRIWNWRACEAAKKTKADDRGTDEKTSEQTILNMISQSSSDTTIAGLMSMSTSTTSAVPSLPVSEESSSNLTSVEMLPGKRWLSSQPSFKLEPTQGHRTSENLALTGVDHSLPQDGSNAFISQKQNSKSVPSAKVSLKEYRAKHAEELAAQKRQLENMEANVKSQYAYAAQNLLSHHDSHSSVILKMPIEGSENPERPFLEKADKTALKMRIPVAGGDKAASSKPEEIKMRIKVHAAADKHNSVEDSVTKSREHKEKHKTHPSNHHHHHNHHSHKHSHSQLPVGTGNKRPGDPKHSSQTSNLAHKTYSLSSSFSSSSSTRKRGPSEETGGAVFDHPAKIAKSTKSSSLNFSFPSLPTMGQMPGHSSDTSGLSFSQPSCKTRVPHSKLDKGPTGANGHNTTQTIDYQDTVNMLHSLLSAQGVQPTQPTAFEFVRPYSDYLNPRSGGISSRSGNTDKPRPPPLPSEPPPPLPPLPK
- TEST_NAME: ADP Glo Kinase assay CDK9/T1
- Format: biochemical
- STATED_CONDITIONS: CDK9T1; read-out: CDK inhibition, Ki (μM) CDK9T1
Please respond with reported Ki for every item in the list.
Answers are plain numbers, in µM.

>>> print(df.to_string())
                                   molecule                       target_under_test  observed_value
0  N[C@H]1CC[C@H](Nc2ncc(F)c(-c3cnc4ccc(Nc5cccc(F)c5)cn34)n2)CC1  CDK9/T1 (Homo sapiens, UniProt P50750)           0.003
1  Cc1cnc(N[C@H]2CC[C@H](C(=O)O)CC2)nc1-c1cnc2ccc(Nc3cncnc3)cn12  CDK9/T1 (Homo sapiens, UniProt P50750)           0.185

Exercise: Output Ki of `COc1ccc(-c2ccc3ncc(-c4nc(N[C@H]5CC[C@H](N)CC5)ncc4Cl)n3c2)cn1`
Key: 0.008

----------
- System: leukemia cell lines
- TEST_NAME: Resazurin cell viability assay on leukemia cell lines (72 h growth inhibition, GI50)
- Type: cell-based
- STATED_CONDITIONS: Homo sapiens, MV4-11 cells
Please respond with reported GI50 for every item in the list.
Numbers only, in µM.

                                   compound  observed_value
0  Cc1cnc(N[C@H]2CC[C@H](NCC(N)=O)CC2)nc1-c1cnc2ccc(Nc3cncnc3)cn12            9.32
1  COc1ccc(-c2ccc3ncc(-c4nc(N[C@H]5CC[C@H](N)CC5)ncc4Cl)n3c2)cn1           0.025

Quick request: GI50 for each listed item, please.
1. Cc1cnc(NC2CCC(N(C)C)CC2)nc1-c1cnc2ccc(Nc3cncc(F)c3)cn12 (stereo not shown)
2. Cc1cnc(N[C@H]2CC[C@H](O)CC2)nc1-c1cnc2ccc(Nc3cccnc3)cn12
3. Cc1cnc(N[C@H]2CC[C@H](N)CC2)nc1-c1cnc2ccc(C(F)(F)F)cn12
4. N[C@H]1CC[C@H](Nc2ncc(Cl)c(-c3cnc4ccc(-c5ccncc5)cn34)n2)CC1
5. Cc1cnc(N[C@H]2CC[C@H](O)CC2)nc1-c1cnc2ccccn12
6. COC(=O)[C@H]1CC[C@H](Nc2ncc(C)c(-c3cnc4ccc(Nc5cncnc5)cn34)n2)CC1

Key:
0.023
0.851
0.008
0.004
1.42
2.4

Quick request: GI50 for each listed item, please.
1. Cc1cnc(NC2CCC(NCC(F)(F)F)CC2)nc1-c1cnc2ccc(Nc3cncnc3)cn12 (stereo not shown)
2. Fc1cnc(N[C@H]2CC[C@H](Nc3ccccn3)CC2)nc1-c1cnc2ccc(-c3ccccc3)cn12
3. N[C@H]1CC[C@H](Nc2ncc(F)c(-c3cnc4ccc(F)cn34)n2)CC1
4. N[C@H]1CC[C@H](Nc2ncc(Cl)c(-c3cnc4ccc(-c5ncccc5F)cn34)n2)CC1
5. Cc1cnc(N[C@H]2CC[C@H](N)CC2)nc1-c1cnc2ccc(Nc3cccnn3)cn12
6. N[C@H]1CC[C@H](Nc2ncc(F)c(-c3cnc4ccc(NC(=O)Cc5ccccc5)cn34)n2)CC1
7. Cc1cnc(N[C@]23C[C@@]4(C)C[C@](C)(C[C@](O)(C4)C2)C3)nc1-c1cnc2ccc(Nc3cncnc3)cn12
8. Cc1cnc(N[C@H]2CC[C@H](N3CCCC3)CC2)nc1-c1cnc2ccc(Nc3cncnc3)cn12

Key:
[2.55, 0.042, 0.006, 0.005, 0.383, 0.008, 0.059, 0.064]

Quick request: GI50 for each listed item, please.
1. COC(=O)CN[C@H]1CC[C@H](Nc2ncc(F)c(-c3cnc4ccccn34)n2)CC1
2. N[C@H]1CC[C@H](Nc2ncc(F)c(-c3cnc4ccc(-c5ccccc5)cn34)n2)CC1
3. Cc1cnc(N[C@H]2CC[C@H](N)CC2)nc1-c1cnc2ccc(-c3ccc(CN4CCOCC4)cc3)cn12
4. CS(=O)(=O)N[C@H]1CC[C@H](Nc2ncc(F)c(-c3cnc4ccccn34)n2)CC1
5. Cc1cnc(N[C@H]2CC[C@H](N)CC2)nc1-c1cnc2ccc(-c3ccc(S(=O)(=O)N(C)C)cc3)cn12
6. Cc1cnc(NC2CCC(F)(F)CC2)nc1-c1cnc2ccccn12

Key:
1: 0.05; 2: 0.003; 3: 0.057; 4: 0.01; 5: 0.025; 6: 3.3

Exercise: Output GI50 of `Cc1cnc(N[C@H]2CC[C@H](N)CC2)nc1-c1cnc2ccc(NC(=O)c3ccc(F)cc3)cn12`
Key: 1.46

----------
- TARGET_UNDER_TEST: CDKs and other kinases (Homo sapiens, UniProt P06493)
- Construct: other: CDK1B; residual activity (%) at 10 μM CDK1B; compound at 10 μM
- TEST_NAME: Radiometric kinase assay (Eurofins Pharma Discovery or Reaction Biology Corporation Kinase Profiler)
- Assay type: biochemical
- STATED_CONDITIONS: CDK1B; compound at 10 μM; read-out: residual activity (%) at 10 μM CDK1B
READOUT_LABEL: remaining activity at 10 µM (%)
Numbers only, in %.

                                   compound                readout_label  uom  observed_value
0  Cc1cnc(NC2CCOCC2)nc1-c1cnc2ccc(Nc3cccnc3)cn12 [Compound 103]  remaining activity at 10 µM    %               4
1  Cc1cnc(N[C@H]2CC[C@H](N)CC2)nc1-c1cnc2ccc(Nc3ccncc3)cn12 [Compound 134]  remaining activity at 10 µM    %              43
2  Cc1cnc(N[C@H]2CC[C@@H](N3CCC3)CC2)nc1-c1cnc2ccc(-c3ccccc3)cn12 [Compound 136]  remaining activity at 10 µM    %              22
3  Cc1cnc(N[C@H]2CC[C@H](N3CCC3)CC2)nc1-c1cnc2ccc(Nc3cncc(F)c3)cn12 [Compound 139]  remaining activity at 10 µM    %              31
4  COC(=O)[C@H]1CC[C@H](Nc2ncc(C)c(-c3cnc4ccc(Nc5cncnc5)cn34)n2)CC1 [Compound 157]  remaining activity at 10 µM    %              69
5  Cc1cnc(NC2CCC(N(C)C)CC2)nc1-c1cnc2ccc(-c3ccccc3)cn12 (stereo not drawn) [Compound 97]  remaining activity at 10 µM    %              28

Quick request: remaining activity at 10 µM for each listed item, please.
1. Cc1cnc(NC2CCC(F)(F)CC2)nc1-c1cnc2ccc(-c3ccccc3)cn12 [Compound 155]
2. Cc1cnc(N[C@H]2CC[C@H](N)CC2)nc1-c1cnc2ccc(Nc3cncc(C(F)(F)F)c3)cn12 [Compound 65]
3. COc1cccc(-c2ccc3ncc(-c4nc(N[C@H]5CC[C@H](N)CC5)ncc4C)n3c2)c1 [Compound 57]
4. N[C@H]1CC[C@H](Nc2ncc(F)c(-c3cnc4cc(Cl)ccn34)n2)CC1 [Compound 43]
5. Cc1cnc(N[C@H]2CC[C@@H](N)CC2)nc1-c1cnc2ccc(Nc3cncnc3)cn12 [Compound 93]
6. Cc1cnc(N[C@]23C[C@@]4(C)C[C@](C)(C[C@](O)(C4)C2)C3)nc1-c1cnc2ccc(Nc3cncnc3)cn12 [Compound 102]
7. Cc1cnc(N[C@]23C[C@@]4(C)C[C@](C)(C[C@](O)(C4)C2)C3)nc1-c1cnc2ccc(Nc3cccnc3)cn12 [Compound 101]

Key:
[100, 32, 47, 4, 35, 36, 60]

Quick request: remaining activity at 10 µM for each listed item, please.
1. N[C@H]1CC[C@H](Nc2ncc(F)c(-c3cnc4cc(-c5cccnc5)ccn34)n2)CC1 [Compound 45]
2. Cc1cnc(N[C@H]2CC[C@H](NC3CCN(C)CC3)CC2)nc1-c1cnc2ccc(-c3ccccc3)cn12 [Compound 90]

Key:
1. 0
2. 57
